target: 5-hydroxytryptamine receptor 1A (Homo sapiens); also: assay procedure not described here
Sequence (P08908 whole entry): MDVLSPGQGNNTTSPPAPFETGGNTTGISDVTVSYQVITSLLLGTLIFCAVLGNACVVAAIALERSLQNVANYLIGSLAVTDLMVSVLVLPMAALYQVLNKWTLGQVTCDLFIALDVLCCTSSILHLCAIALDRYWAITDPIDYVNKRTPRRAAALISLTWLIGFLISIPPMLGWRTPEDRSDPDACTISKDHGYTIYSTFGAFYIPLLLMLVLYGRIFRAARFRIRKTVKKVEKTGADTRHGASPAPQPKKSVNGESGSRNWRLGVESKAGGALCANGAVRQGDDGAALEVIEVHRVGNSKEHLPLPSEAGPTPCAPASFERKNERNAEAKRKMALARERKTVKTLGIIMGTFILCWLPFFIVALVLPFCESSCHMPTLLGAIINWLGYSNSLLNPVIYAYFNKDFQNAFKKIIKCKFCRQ
Let's look at some compounds and their measured AC50.

compound	AC50
CN1CCN(C2=Nc3ccccc3Oc3ccc(Cl)cc32)CC1	33.1 µM
CC(CCc1ccc(O)cc1)NCCc1ccc(O)c(O)c1 (stereo not drawn)	> 10 µM
C[C@@H](Oc1cc(-c2cnn(C3CCNCC3)c2)cnc1N)c1c(Cl)ccc(F)c1Cl	> 10 µM
CCCC(CCC)C(N)=O [VALPROMIDE]	> 10 µM
Cn1cnc2c(F)c(Nc3ccc(Br)cc3Cl)c(C(=O)NOCCO)cc21	> 10 µM
CNC1=Nc2ccc(Cl)cc2C(c2ccccc2)=[N+]([O-])C1 [CHLORDIAZEPOXIDE]	> 10 µM
C[C@H]1c2cccc(O)c2C(=O)C2=C(O)[C@]3(O)C(=O)C(C(N)=O)=C(O)[C@@H](N(C)C)[C@@H]3[C@@H](O)[C@@H]21	> 10 µM
CCC[C@H](NC(=O)[C@@H]1[C@H]2CCC[C@H]2CN1C(=O)[C@@H](NC(=O)[C@@H](NC(=O)c1cnccn1)C1CCCCC1)C(C)(C)C)C(=O)C(=O)NC1CC1	> 10 µM
Cc1ncc2n1-c1ccc(Cl)cc1C(c1ccccc1F)=NC2	> 10 µM
CC(C)Cc1ccc(C(C)C(=O)O)cc1 (stereo not drawn)	> 10 µM
CCN(CC)CCNC(=O)c1c(C)[nH]c(/C=C2\C(=O)Nc3ccc(F)cc32)c1C	7.13 µM
CN1CCC(=C2c3ccccc3CCc3cccnc32)CC1	5.69 µM
COc1ccccc1Oc1c(NS(=O)(=O)c2ccc(C(C)(C)C)cc2)nc(-c2ncccn2)nc1OCCO	> 10 µM
CCOC(=O)C1=C(C)NC(C)=C(C(=O)OC)C1c1cccc([N+](=O)[O-])c1 (stereo not drawn)	> 10 µM
Nc1ccc(S(=O)(=O)Nc2nccs2)cc1	> 10 µM
C=CC[C@@H]1/C=C(\C)C[C@H](C)C[C@H](OC)[C@H]2O[C@@](O)(C(=O)C(=O)N3CCCC[C@H]3C(=O)O[C@H](/C(C)=C/[C@@H]3CC[C@@H](O)[C@H](OC)C3)[C@H](C)[C@@H](O)CC1=O)[C@H](C)C[C@@H]2OC [TACROLIMUS ANHYDROUS]	> 10 µM
COc1ccccc1OCCNCC(O)COc1cccc2[nH]c3ccccc3c12 (stereo not drawn)	0.02 µM
CCN(CC)CCN1C(=O)CN=C(c2ccccc2F)c2cc(Cl)ccc21	5.47 µM

From: ChEMBL document CHEMBL5291721
